System: P388
Test: In vivo antitumor activity was determined against P 388 leukemia cells implanted (ip) in BDF1 mice at a dose of 100 mg/kg
Assay type: functional, Mus musculus
Measured T/C of individual entries
METRIC NAME: T/C (%)

[[record]]
line_notation = "CN(C)CCCCCNc1ccc2ncn3c4ccccc4c(=O)c1c23.Cl.Cl"
limit_sign = "="
result_number = 110

[[record]]
line_notation = "CN(C)CCCNc1ccc([N+](=O)[O-])c2nc3ccccc3c(O)c12.Cl"
limit_sign = "="
result_number = 189

[[record]]
line_notation = "CN(C)CCNc1ccc(N)c2nc3ccccc3c(O)c12.Cl.Cl"
limit_sign = "<"
result_number = 85

[[record]]
line_notation = "CCc1nc2ccc(NCCN(C)C)c3c(=O)c4ccccc4n1c23.Cl.Cl"
limit_sign = "="
result_number = 200

